Header: IC50 / Amine oxidase [flavin-containing] A (Homo sapiens, UniProt P21397) / multiple publications

Below are worked cases with known answers.
compound="CC(COc1ccccc1)N[C@@H]1C[C@H]1c1ccc(NC(=O)c2ccc(-c3ccccc3)cc2)cc1 (relative stereo)" assayed_system="Amine oxidase [flavin-containing] A (Homo sapiens, UniProt P21397)" result="> 10 µM"
compound="O=C(Nc1ccc([C@@H]2C[C@H]2NCC2CC2)cc1)c1cc(-c2ccccc2)no1 (relative stereo)" assayed_system="Amine oxidase [flavin-containing] A (Homo sapiens, UniProt P21397)" result="> 10 µM"
compound="O=C(Nc1ccc([C@@H]2C[C@H]2NCC2CC2)cc1)c1ccc(-c2nnn[nH]2)cc1 (relative stereo)" assayed_system="Amine oxidase [flavin-containing] A (Homo sapiens, UniProt P21397)" result="> 10 µM"
compound="O=C(Nc1ccc([C@@H]2C[C@H]2NC2CCCCCCC2)cc1)c1ccccc1 (relative stereo)" assayed_system="Amine oxidase [flavin-containing] A (Homo sapiens, UniProt P21397)" result="> 10 µM"
compound="O=C(Nc1ccc([C@@H]2C[C@H]2NCc2cccs2)cc1)c1ccccc1 (relative stereo)" assayed_system="Amine oxidase [flavin-containing] A (Homo sapiens, UniProt P21397)" result="> 10 µM"

Record NC/C(=C\F)Cn1cc2c(=O)n(C3CC3)ccc2n1 , field IC50: > 100 µM

Query CCN1CCc2cn(C/C(=C/F)CN)cc2C1=O yields IC50 of > 100 µM

Record Cc1nccc(Cl)c1C(=O)NCc1cnc(N2CCNC(=O)C2)nc1 , field IC50: > 10 µM

====

Please find below pIC50 data on Amine oxidase [flavin-containing] A (Homo sapiens, UniProt P21397) compiled from the literature.
pIC50: −log10 of the molar value.

molecule=CC(C)(C)OC(=O)NC1(C(=O)N2CC(C#Cc3ccc4c(=O)c(-c5ccc(NS(C)(=O)=O)cc5)coc4c3)C2)CC1 measurement_type=pIC50 result=3.96
molecule=Cn1ccc(-c2ccc(CNC(=O)c3c(Cl)cccc3Cl)cc2)cc1=O measurement_type=pIC50 result="< 3.89"
molecule="O=C(Nc1ccc([C@@H]2C[C@H]2NCc2ccccc2)cc1)c1ccccc1 (relative stereo)" measurement_type=pIC50 result=5.42
molecule="CC(=O)N1CCCc2ccc(C(=O)Nc3ccc([C@@H]4C[C@H]4NCC4CC4)cc3)cc2C1 (relative stereo)" measurement_type=pIC50 result="< 5.00"
molecule=NC(=O)C#Cc1ccc(OCc2cccc(F)c2)cc1 measurement_type=pIC50 result=5.25
molecule=O=c1c2ccc(OCc3noc(-c4ccccc4)n3)cc2ncn1-c1ccc(O)cc1 measurement_type=pIC50 result="< 5.00"

Noted pIC50 for CS(=O)(=O)Nc1ccc(-c2coc3cc(C#CC4CN(C(=O)C5CC5(F)F)C4)ccc3c2=O)cc1 (centres unmarked) , tested on Amine oxidase [flavin-containing] A (Homo sapiens, UniProt P21397): < 3.89

The recorded pIC50 with Amine oxidase [flavin-containing] A (Homo sapiens, UniProt P21397) for CC(N[C@@H]1C[C@H]1c1ccc(NC(=O)c2ccccc2)cc1)c1ccccc1 (relative stereo) was < 5.00

====

pIC50: −log10 of the molar value.
Here, molecules appear alongside pIC50 reported for Amine oxidase [flavin-containing] A (Homo sapiens) in the literature.

Below, 5 molecules whose answers are already recorded.
molecule="O=C(Nc1ccc([C@@H]2C[C@H]2NCC2CC2)cc1)c1ccc(-c2cnco2)cc1 (relative stereo)" result="< 5.00"
molecule=CS(=O)(=O)Nc1ccc(-c2coc3cc(C#Cc4ccccn4)ccc3c2=O)cc1 result="< 3.89"
molecule=CN(C(=O)OC(C)(C)C)C1(C(=O)N2CC(C#Cc3ccc4c(=O)c(-c5ccc(NS(C)(=O)=O)cc5)coc4c3)C2)CC1 result="< 3.89"
molecule=O=C(NCc1ccc(-c2cccc(=O)[nH]2)cc1)c1ccccc1Cl result="< 5.00"
molecule=O=C1CN(c2ccc(CNC(=O)c3c(Cl)cccc3Cl)cn2)CCN1 result="< 5.00"

# pIC50 of CS(=O)(=O)Nc1ccc(-c2coc3cc(C#Cc4cc[nH]c(=O)c4)ccc3c2=O)cc1 = < 3.89

GET /value?item= CS(=O)(=O)Nc1ccc(-c2coc3cc(C#CC4CCNCC4)ccc3c2=O)cc1 &field=pIC50 returns < 3.96

Documented pIC50 of O=C(Nc1ccc([C@@H]2C[C@H]2NCc2ccc3c(c2)OCO3)cc1)c1ccc(-c2ccccc2)cc1 (relative stereo) : < 5.00
